Test system: Digitaria sanguinalis (DIGSA)
Test: Post-emergence efficacy, glasshouse spray test
Assay type: in vivo
Settings: Digitaria sanguinalis, post-emergence, 312 h; Application Rate 500 g/Ha; evaluated after 13 days; read-out: Control of weed species after post-emergence application, DIGSA (100=total damage to plant; 0=no damage to plant)
Method: Seeds of a variety of test species were sown in standard soil in pots. […] After 13 days the test was evaluated (100=total damage to plant; 0=no damage to plant). […]
Entries and their pest or weed control at 500 g/ha
observed.property: pest or weed control at 500 g/ha (%)

- compound: "O=C(O)C[n+]1ccc(-c2nccs2)cn1 [Compound A123]"
  observed.property: "pest or weed control at 500 g/ha"
  unit.spec: "%"
  measured.number: 20
- compound: "O=C(O)CC[n+]1ccc(-c2nnc[nH]2)cn1 [Compound A37]"
  observed.property: "pest or weed control at 500 g/ha"
  unit.spec: "%"
  measured.number: 10
- compound: "CC(C[n+]1ccc(-c2ncco2)cn1)NS(=O)(=O)[O-] (stereo not shown) [Compound A89]"
  observed.property: "pest or weed control at 500 g/ha"
  unit.spec: "%"
  measured.number: 90
- compound: "Cc1nnc(-c2cc[n+](CCC(=O)O)nc2)o1 [Compound A140]"
  observed.property: "pest or weed control at 500 g/ha"
  unit.spec: "%"
  measured.number: 70
- compound: "COC(=O)C[n+]1ccc(-c2nccs2)cn1 [Compound A120]"
  observed.property: "pest or weed control at 500 g/ha"
  unit.spec: "%"
  measured.number: 80
- compound: "O=C(O)CC[n+]1ccc(-c2nc(C(F)(F)F)co2)cn1 [Compound A56]"
  observed.property: "pest or weed control at 500 g/ha"
  unit.spec: "%"
  measured.number: 70
- compound: "Cn1cnc(-c2cc[n+](CCCC(=O)O)nc2)n1 [Compound A119]"
  observed.property: "pest or weed control at 500 g/ha"
  unit.spec: "%"
  measured.number: 90
- compound: "O=S(=O)([O-])OCC[n+]1ccc(-c2nccs2)cn1 [Compound A113]"
  observed.property: "pest or weed control at 500 g/ha"
  unit.spec: "%"
  measured.number: 70
- compound: "O=P(O)(O)CC[n+]1ccc(-c2ncco2)cn1 [Compound A77]"
  observed.property: "pest or weed control at 500 g/ha"
  unit.spec: "%"
  measured.number: 90
- compound: "Cn1cnnc1-c1cc[n+](CCS(=O)(=O)[O-])nc1 [Compound A50]"
  observed.property: "pest or weed control at 500 g/ha"
  unit.spec: "%"
  measured.number: 100

---

system: Digitaria sanguinalis (DIGSA); experiment: Post-emergence efficacy, glasshouse spray test; type: in vivo; conditions: Digitaria sanguinalis, post-emergence, 312 h; Application Rate 500 g/Ha; evaluated after 13 days; read-out: Control of weed species after post-emergence application, DIGSA (100=total damage to plant; 0=no damage to plant)
Entries and their pest or weed control at 500 g/ha
observed.property: pest or weed control at 500 g/ha (%)

- molecule: "O=S(=O)([O-])CCC[n+]1ccc(-c2nnco2)cn1 [Compound A7]"
  observed.property: "pest or weed control at 500 g/ha"
  unit.spec: "%"
  measured.number: 30
- molecule: "Cn1cnc(-c2cc[n+](CCCS(=O)(=O)[O-])nc2)n1 [Compound A117]"
  observed.property: "pest or weed control at 500 g/ha"
  unit.spec: "%"
  measured.number: 80
- molecule: "COC(=O)CCC[n+]1ccc(-c2nccs2)cn1 [Compound A114]"
  observed.property: "pest or weed control at 500 g/ha"
  unit.spec: "%"
  measured.number: 70
- molecule: "Cn1cc(-c2cc[n+](CCS(=O)(=O)[O-])nc2)nn1 [Compound A81]"
  observed.property: "pest or weed control at 500 g/ha"
  unit.spec: "%"
  measured.number: 70
- molecule: "Cn1nncc1-c1cc[n+](CCS(=O)(=O)[O-])nc1 [Compound A49]"
  observed.property: "pest or weed control at 500 g/ha"
  unit.spec: "%"
  measured.number: 70
- molecule: "COC(=O)CCC[n+]1ccc(-c2nc(C)co2)cn1 [Compound A128]"
  observed.property: "pest or weed control at 500 g/ha"
  unit.spec: "%"
  measured.number: 90
- molecule: "Cc1nsc(-c2cc[n+](CCS(=O)(=O)[O-])nc2)c1C [Compound A54]"
  observed.property: "pest or weed control at 500 g/ha"
  unit.spec: "%"
  measured.number: 90
- molecule: "O=S(=O)([O-])CC[n+]1ccc(-c2cocn2)cn1 [Compound A22]"
  observed.property: "pest or weed control at 500 g/ha"
  unit.spec: "%"
  measured.number: 20
- molecule: "CS(=O)(=O)C[N-]C(=O)CCC[n+]1ccc(-c2ncco2)cn1 [Compound A74]"
  observed.property: "pest or weed control at 500 g/ha"
  unit.spec: "%"
  measured.number: 90

---

system: Setaia fabei (SETFA); test: Post-emergence efficacy, glasshouse spray test; assay type: in vivo; conditions: Setaria faberi, post-emergence, 312 h; Application Rate 500 g/Ha; evaluated after 13 days; read-out: Control of weed species after post-emergence application, SETFA (100=total damage to plant; 0=no damage to plant)

- molecule: "COC(=O)C[n+]1ccc(-c2nccs2)cn1 [Compound A120]"
  pest or weed control at 500 g/ha: "60%"
- molecule: "O=S(=O)([O-])N1CCCC1C[n+]1ccc(-c2ncco2)cn1 (stereo not shown) [Compound A101]"
  pest or weed control at 500 g/ha: "60%"
- molecule: "CS(=O)(=O)[N-]C(=O)C[n+]1ccc(-c2ncco2)cn1 [Compound A72]"
  pest or weed control at 500 g/ha: "60%"
- molecule: "CC(C[n+]1ccc(-c2ncco2)cn1)C(=O)O (stereo not shown) [Compound A88]"
  pest or weed control at 500 g/ha: "60%"
- molecule: "Nc1nsc(-c2cc[n+](CCS(=O)(=O)[O-])nc2)n1 [Compound A141]"
  pest or weed control at 500 g/ha: "50%"
- molecule: "O=S(=O)([O-])CCC[n+]1ccc(-c2ccon2)cn1 [Compound A59]"
  pest or weed control at 500 g/ha: "80%"
- molecule: "O=S(=O)([O-])OCC[n+]1ccc(-c2ncno2)cn1 [Compound A8]"
  pest or weed control at 500 g/ha: "40%"
- molecule: "Cn1cc(-c2cc[n+](CCC(=O)O)nc2)nn1 [Compound A80]"
  pest or weed control at 500 g/ha: "40%"
- molecule: "O=S(=O)([O-])CC[n+]1ccc(-c2nc(Cl)cs2)cn1 [Compound A25]"
  pest or weed control at 500 g/ha: "40%"
- molecule: "Cc1nsc(-c2cc[n+](CCC(=O)O)nc2)c1C [Compound A58]"
  pest or weed control at 500 g/ha: "90%"

---

test system: Digitaria sanguinalis (DIGSA); assay: Post-emergence efficacy, glasshouse spray test; assay type: in vivo; settings: Digitaria sanguinalis, post-emergence, 312 h; Application Rate 500 g/Ha; evaluated after 13 days; read-out: Control of weed species after post-emergence application, DIGSA (100=total damage to plant; 0=no damage to plant)
# if measured pest or weed control at 500 g/ha < 70%: Yes  # else: No

- molecule: "CCOC(=O)c1oc(-c2cc[n+](CCC(=O)O)nc2)nc1C [Compound A130]"
  assigned.class: "Yes"
- molecule: "COc1csc(-c2cc[n+](CCS(=O)(=O)[O-])nc2)n1 [Compound A26]"
  assigned.class: "Yes"
- molecule: "Cc1nnc(-c2cc[n+](CCC(=O)O)nc2)s1 [Compound A98]"
  assigned.class: "No"
- molecule: "O=S(=O)([O-])CCC[n+]1ccc(-c2nccs2)cn1 [Compound A116]"
  assigned.class: "Yes"
- molecule: "O=S(=O)([O-])CC[n+]1ccc(-c2ccns2)cn1 [Compound A5]"
  assigned.class: "Yes"
- molecule: "O=C(O)CC[n+]1ccc(-c2ccoc2)cn1 [Compound A43]"
  assigned.class: "Yes"
- molecule: "O=C(O)C[n+]1ccc(-c2ncco2)cn1 [Compound A71]"
  assigned.class: "No"
- molecule: "COC(=O)C[n+]1ccc(-c2ncco2)cn1 [Compound A66]"
  assigned.class: "Yes"
- molecule: "CNC(=O)c1coc(-c2cc[n+](CCC(=O)O)nc2)n1 [Compound A127]"
  assigned.class: "No"
- molecule: "Nc1nnc(-c2cc[n+](CCS(=O)(=O)[O-])nc2)s1 [Compound A65]"
  assigned.class: "No"
- molecule: "Cc1coc(-c2cc[n+](CCCC(=O)O)nc2)n1 [Compound A135]"
  assigned.class: "No"
- molecule: "Cn1ncnc1-c1cc[n+](CCC(=O)O)nc1 [Compound A27]"
  assigned.class: "No"
- molecule: "COC(=O)CCC[n+]1ccc(-c2ncn(C)n2)cn1 [Compound A121]"
  assigned.class: "Yes"
- molecule: "COP(=O)(O)CC[n+]1ccc(-c2ncco2)cn1 [Compound A106]"
  assigned.class: "No"
- molecule: "COP(=O)(O)CCC[n+]1ccc(-c2ncco2)cn1 [Compound A86]"
  assigned.class: "Yes"
- molecule: "O=S(=O)([O-])CC[n+]1ccc(-c2nc(Cl)cs2)cn1 [Compound A25]"
  assigned.class: "Yes"
- molecule: "O=C(O)CC[n+]1ccc(-c2nc(Cl)cs2)cn1 [Compound A46]"
  assigned.class: "Yes"
- molecule: "Cc1nsc(-c2cc[n+](CCC(=O)O)nc2)c1C [Compound A58]"
  assigned.class: "No"
- molecule: "CCOC(=O)CC[n+]1ccc(-c2cocn2)cn1 [Compound A20]"
  assigned.class: "Yes"
- molecule: "CNc1nnc(-c2cc[n+](CCS(=O)(=O)[O-])nc2)s1 [Compound A45]"
  assigned.class: "Yes"

Source of measurements: patent US20210053957A1
